Ref: ChEMBL document CHEMBL1944610

species: Rattus norvegicus; experiment: Selectivity index, ratio of EC50 for activation of KATP channel in rat aortic rings assessed as relaxation of KCl-induced contraction to IC50 for activation of SUR1 in rat pancreatic islets assessed as inhibition of glucose-induced insulin secretion; type: tissue-based; details: Aorta
Give Ratio for every item shown.
Write the number on its own, no unit after it.

Value of measured Ratio for the entry CC(CO)NC1=NS(=O)(=O)c2cc(Cl)ccc2N1 (racemic) : 76

Value of measured Ratio for the entry CC(C)NC1=NS(=O)(=O)c2cc(Cl)ccc2N1 : 66

Value of measured Ratio for the entry C[C@H](CO)NC1=NS(=O)(=O)c2ccc(Br)cc2N1 : 144

---

molecular target: ATP-binding cassette sub-family C member 8 (Rattus norvegicus) (UniProt Q09429); test: Activation of SUR1 in rat pancreatic islets assessed as residual insulin release at 1 uM in presence of 16.7 mM glucose
Sequence (Q09429 whole entry): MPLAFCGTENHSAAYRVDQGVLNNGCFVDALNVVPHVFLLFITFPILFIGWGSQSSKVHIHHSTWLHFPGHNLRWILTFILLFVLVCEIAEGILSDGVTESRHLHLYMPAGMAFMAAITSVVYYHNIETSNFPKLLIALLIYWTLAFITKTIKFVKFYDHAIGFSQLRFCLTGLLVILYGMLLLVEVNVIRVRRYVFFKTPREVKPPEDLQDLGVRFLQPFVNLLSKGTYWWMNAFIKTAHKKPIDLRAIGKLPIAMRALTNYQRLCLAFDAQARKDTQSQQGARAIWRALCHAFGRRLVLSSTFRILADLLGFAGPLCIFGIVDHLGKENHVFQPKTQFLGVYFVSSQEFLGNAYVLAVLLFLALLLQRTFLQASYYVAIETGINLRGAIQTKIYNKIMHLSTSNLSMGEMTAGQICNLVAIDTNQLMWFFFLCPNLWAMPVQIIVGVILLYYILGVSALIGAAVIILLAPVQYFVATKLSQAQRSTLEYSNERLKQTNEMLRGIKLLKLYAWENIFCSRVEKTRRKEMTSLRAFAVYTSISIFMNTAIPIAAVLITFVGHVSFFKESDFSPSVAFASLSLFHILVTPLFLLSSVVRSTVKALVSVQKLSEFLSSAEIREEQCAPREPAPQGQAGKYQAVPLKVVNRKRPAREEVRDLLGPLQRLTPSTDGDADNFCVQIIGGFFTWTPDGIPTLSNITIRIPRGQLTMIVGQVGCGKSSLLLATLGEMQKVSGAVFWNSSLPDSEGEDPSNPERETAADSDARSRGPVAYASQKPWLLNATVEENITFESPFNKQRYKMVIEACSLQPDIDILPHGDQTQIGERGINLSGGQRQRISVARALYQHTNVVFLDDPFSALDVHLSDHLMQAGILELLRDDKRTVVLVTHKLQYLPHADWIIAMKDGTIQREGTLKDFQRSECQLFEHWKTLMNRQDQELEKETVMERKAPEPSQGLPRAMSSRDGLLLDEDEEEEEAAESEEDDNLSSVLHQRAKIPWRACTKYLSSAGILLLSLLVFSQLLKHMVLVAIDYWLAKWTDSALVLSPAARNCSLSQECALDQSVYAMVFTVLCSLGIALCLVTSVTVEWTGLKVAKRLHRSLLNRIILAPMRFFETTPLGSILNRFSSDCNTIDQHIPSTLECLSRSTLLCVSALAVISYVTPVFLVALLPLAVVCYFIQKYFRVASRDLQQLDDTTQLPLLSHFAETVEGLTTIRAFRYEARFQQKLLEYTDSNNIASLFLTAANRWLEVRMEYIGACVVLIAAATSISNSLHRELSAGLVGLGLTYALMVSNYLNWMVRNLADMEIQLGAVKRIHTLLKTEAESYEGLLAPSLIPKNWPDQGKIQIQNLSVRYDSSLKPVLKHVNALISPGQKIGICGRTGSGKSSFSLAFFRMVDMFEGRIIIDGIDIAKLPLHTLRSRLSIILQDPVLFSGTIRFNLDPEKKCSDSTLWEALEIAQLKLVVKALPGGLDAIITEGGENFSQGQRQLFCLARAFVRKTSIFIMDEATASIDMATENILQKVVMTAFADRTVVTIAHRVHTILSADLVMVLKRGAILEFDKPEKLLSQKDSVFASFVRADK
Give Activity for every item shown.
API: value field is a number in %; no unit string.

Form: item COc1cc2c(cc1Cl)NC(N[C@H](C)CO)=NS2(=O)=O ; test system ATP-binding cassette sub-family C member 8 (Rattus norvegicus) (UniProt Q09429); Activity: 81

Form: item C[C@H](CO)NC1=NS(=O)(=O)c2ccc(Br)cc2N1 ; test system ATP-binding cassette sub-family C member 8 (Rattus norvegicus) (UniProt Q09429); Activity: 65.8

Form: item C[C@@H](CO)NC1=NS(=O)(=O)c2cc(Cl)c(Cl)cc2N1 ; test system ATP-binding cassette sub-family C member 8 (Rattus norvegicus) (UniProt Q09429); Activity: 99.3

Form: item CC(CO)NC1=NS(=O)(=O)c2cc(Cl)c(Cl)cc2N1 (racemic) ; test system ATP-binding cassette sub-family C member 8 (Rattus norvegicus) (UniProt Q09429); Activity: 59.8

Form: item COc1ccc2c(c1)S(=O)(=O)NC(NC(C)C)=N2 ; test system ATP-binding cassette sub-family C member 8 (Rattus norvegicus) (UniProt Q09429); Activity: 67.6

Form: item CC(CO)NC1=NS(=O)(=O)c2cc(Cl)ccc2N1 (racemic) ; test system ATP-binding cassette sub-family C member 8 (Rattus norvegicus) (UniProt Q09429); Activity: 94

Form: item COc1ccc2c(c1)S(=O)(=O)N=C(N[C@H](C)CO)N2 ; test system ATP-binding cassette sub-family C member 8 (Rattus norvegicus) (UniProt Q09429); Activity: 99.3

Form: item C[C@H](CO)NC1=NS(=O)(=O)c2cc(F)ccc2N1 ; test system ATP-binding cassette sub-family C member 8 (Rattus norvegicus) (UniProt Q09429); Activity: 71.8

Form: item COc1ccc2c(c1)S(=O)(=O)N=C(NC(C)CO)N2 (racemic) ; test system ATP-binding cassette sub-family C member 8 (Rattus norvegicus) (UniProt Q09429); Activity: 97.9

Form: item C[C@H](CO)NC1=NS(=O)(=O)c2cc(Cl)ccc2N1 ; test system ATP-binding cassette sub-family C member 8 (Rattus norvegicus) (UniProt Q09429); Activity: 41.7

Form: item C[C@H](CO)NC1=NS(=O)(=O)c2cc(Cl)c(Cl)cc2N1 ; test system ATP-binding cassette sub-family C member 8 (Rattus norvegicus) (UniProt Q09429); Activity: 21.1

Form: item CC(C)NC1=NS(=O)(=O)c2ccc(Br)cc2N1 ; test system ATP-binding cassette sub-family C member 8 (Rattus norvegicus) (UniProt Q09429); Activity: 18.2

Form: item CC(=O)OCC(C)NC1=NS(=O)(=O)c2cc(Cl)ccc2N1 (racemic) ; test system ATP-binding cassette sub-family C member 8 (Rattus norvegicus) (UniProt Q09429); Activity: 85.9

Form: item COc1cc2c(cc1Cl)NC(NC(C)C)=NS2(=O)=O ; test system ATP-binding cassette sub-family C member 8 (Rattus norvegicus) (UniProt Q09429); Activity: 20.6

Form: item CC(CO)NC1=NS(=O)(=O)c2cc(F)ccc2N1 (racemic) ; test system ATP-binding cassette sub-family C member 8 (Rattus norvegicus) (UniProt Q09429); Activity: 81.7

Form: item CC(CO)NC1=NS(=O)(=O)c2ccc(Br)cc2N1 (racemic) ; test system ATP-binding cassette sub-family C member 8 (Rattus norvegicus) (UniProt Q09429); Activity: 66.8

Form: item CC(CO)NC1=NS(=O)(=O)c2ccc(Cl)cc2N1 (racemic) ; test system ATP-binding cassette sub-family C member 8 (Rattus norvegicus) (UniProt Q09429); Activity: 67

Form: item C[C@H](CO)NC1=NS(=O)(=O)c2ccc(Cl)cc2N1 ; test system ATP-binding cassette sub-family C member 8 (Rattus norvegicus) (UniProt Q09429); Activity: 35.6

Form: item CC(C)NC1=NS(=O)(=O)c2cc(F)ccc2N1 ; test system ATP-binding cassette sub-family C member 8 (Rattus norvegicus) (UniProt Q09429); Activity: 47.3
